Test system: HCC 2998
Test: NCI tumour cell line growth inhibition, 48 h
Active and inactive are the calls of the source. No stated cut-off is given here; in the data, active = GI50 up to about 1.1 µM and inactive = higher. Bridge positions count the residues as written; N and C are the ends. Square brackets hold non-standard residues; d marks the D form. Peptide text beside a SMILES is read from it. I, II: the chains in the order shown. * marks the point of attachment. Quinoxaline2carbonyl = O=C(c1cnc2ccccc2n1)*; NMeV = CN[CH](C(=O)O)C(C)C; NMeC = CN[CH](CS)C(=O)O
Outcome field: choose from active, inactive

Exercise: Write down the call the test reported for this compound. Item: ClC1CCC2OOC1O2 (stereo unspecified)
Key: inactive

Exercise: Now the compound CCCc1cc(-c2ccc(-c3cc(CCC)c(C=O)[nH]3)s2)[nH]c1C=O
Key: inactive

Exercise: Do the same for CC1NC(=O)C(NC(=O)c2cnc3ccccc3n2)COC(=O)C(C(C)C)N(C)C(=O)C2CSSCC(C(=O)N(C)C(C(C)C)C(=O)OCC(NC(=O)c3cnc4ccccc4n3)C(=O)NC(C)C(=O)N2C)N(C)C1=O (stereo unspecified) (I: Quinoxaline2carbonyl-SA[NMeC][NMeV] / II: Quinoxaline2carbonyl-SA[NMeC][NMeV]; ester I:1-II:C, I:C-II:1; disulfide I:3-II:3; configuration not given here) please
Key: active

Exercise: Then this compound: C=O.NNCCc1n[nH]c(=O)n1N
Key: inactive

Exercise: Record: COc1ccc(C(=O)OCC2OC(n3cnc4c(=S)nc[nH]c43)C(OC(=O)c3ccc(OC)cc3)C2OC(=O)c2ccc(OC)cc2)cc1 (stereo unspecified)
Key: inactive

Exercise: // repeat for O=S1(=O)NN=C(NCc2ccc(F)cc2)c2ccccc21 and report
Key: inactive

Exercise: Would you kindly repeat that for C[C@H](CCC(=O)O)[C@H]1CC[C@H]2[C@@H]3[C@H](O)C[C@@H]4C[C@H](O)CC[C@]4(C)[C@H]3C[C@H](O)[C@]12C ?
Key: inactive

Exercise: Moving on to the next compound: OC1=C(c2ccccc2)C2=NCCN2c2ccccc21
Key: inactive

Exercise: What do we get for C/C(=C\CNc1ncnc2[nH]c(Cl)nc12)CO ?
Key: inactive

Exercise: Likewise for O=c1c2cc(I)ccc2nc(-c2cccs2)n1/N=C/c1ccccc1 ?
Key: inactive

Exercise: Entry to check: NCCSc1nc(N)c2ncn(C3OC(CO)C(O)C3O)c2n1 (stereo unspecified)
Key: inactive

Exercise: And then COC(=O)c1cc(C#N)[nH]c1-c1cc(Br)cs1 , what is it?
Key: inactive

Exercise: What would you report for CCOC(=O)c1ccc(O)cc1 [ETHYLPARABEN] ?
Key: inactive

Exercise: Now consider CC(=O)c1cc2ccccc2[n+]([O-])c1N and answer again.
Key: inactive

Exercise: Then this compound: O=C1NC(c2ccccc2)C1N(Cc1ccccc1)Cc1ccccc1 (stereo unspecified)
Key: inactive

Exercise: Note, next up: CCOC(=O)/C=C(/C(=O)OCC)n1cc(C)c(=O)n(Cc2cn(CCCCOC(C)=O)nn2)c1=O
Key: inactive

---

System: CAKI-1
Test: NCI tumour cell line growth inhibition, 48 h
Activity calls are given as the source filed them. Rule as the data show it: active = GI50 up to about 1.1 µM and inactive = higher. *1 amine or outer side, *2 acyl side, *3 side chain or, on linkers, in order; H or OH if unused. Where a SMILES comes first, the peptide text is derived from it. Bridges are numbered along the chain shown (N, C = ends). [ ]: non-standard residue; d: D form. The star is where a group is joined. X56 = CC(C)C(C)C(C(=O)[*:2])N(C)[*:1]; Picolinoyl(3-OH) = O=C(c1ncccc1O)*; NMePhg = CN[CH](C(=O)O)c1ccccc1; Hyp = O=C(O)[CH]1C[CH](O)CN1; Sar = CNCC(=O)O
# valid calls are active, inactive; nothing else

Exercise: Test call for this molecule, please: CC(C)CC1NC(=O)C(NC(=O)c2ncccc2O)C(C)OC(=O)C(c2ccccc2)N(C)C(=O)C(C)NC(=O)C(C(C)C(C)C)N(C)C(=O)CN(C)C(=O)C2CC(O)CN2C1=O (stereo not given) ({Picolinoyl(3-OH)}-TL[Hyp][Sar][X56]A[NMePhg]; ester 1-C; configuration not given here)
Key: inactive

Exercise: Cool, now CC(=O)OC12c3ccccc3-c3ccccc3C1C1C(=O)OC(=O)C12 (stereo not given)
Key: inactive

Exercise: Next molecule up: CN=[S+]([O-])(c1ccccc1)c1ccccc1
Key: inactive

Exercise: How about this molecule: COC(=O)C(=O)C(C(C)=O)C(=O)NCc1ccccc1 (stereo not given)
Key: inactive

Exercise: Subsequent entry: CCC1(O)C[C@H]2CN(CCCc3c([nH]c4ccccc34)[C@@](C(=O)OC)(c3cc4c(cc3OC)N(C)C3[C@](O)(C(=O)OC)[C@H](OC(C)=O)[C@]5(CC)C=CCN6CC[C@]43[C@H]65)C2)C1 (stereo not given in full)
Key: inactive

Exercise: Next molecule up: O=C(/C=C/c1c(O)ccc2ccccc12)c1cccc2ccccc12
Key: inactive

Exercise: Same for BrC1(Br)C2/C=C\CCCCC21 (stereo not given)
Key: inactive

Exercise: Now the same for C/C=C/OC1C(C2COC(C)(C)O2)OC2OC(C)(C)OC21 (stereo not given)
Key: inactive

Exercise: And for Cc1ccc(S(=O)(=O)NNC(=O)Nc2cccc(C(F)(F)F)c2)cc1 ?
Key: inactive

Exercise: CC(C)c1cccc(C(C)C)c1NC(=O)C(=O)C1CCC2=C(Sc3ccccc3N2)C1=O (stereo not given) ?
Key: inactive

Exercise: Same question for Cc1ccc(O)c(C2=NNC(c3cccc(Cl)c3)C2)c1 (stereo not given) please.
Key: inactive

Exercise: Next molecule: COC(=O)c1c(C)nc(C)c(NO)c1-c1ccccc1C(F)(F)F
Key: inactive

Exercise: Queued: Brc1ccc(C2(N3CCCCC3)CCCCC2)s1
Key: inactive

Exercise: Please do the same for c1ccc([P+](c2ccccc2)(c2ccccc2)C2Sc3ccccc3S2)cc1 as well.
Key: inactive

Exercise: Similarly, Cn1c(-c2ccc[se]2)ccc1-c1ccc(C=O)[se]1 ?
Key: active

Exercise: Then this molecule: O=C(O)CNS(=O)(=O)c1ccc(NCc2ccccc2)cc1
Key: inactive

Exercise: Same lookup for N#CC1(C#N)C(C#N)(C#N)C12CCCCCC2 , please.
Key: inactive

Exercise: Do the same for CN(c1ccccc1)c1c(Cl)c(=O)oc2c1ccc1occc12 please
Key: inactive

Exercise: Now this one: CC1=NN(C(=O)Cc2ccccc2)C(=O)/C1=C\c1ccco1
Key: inactive

Exercise: Quick one: O=C(O)c1ccccc1C(=O)OCC1CCCN2CCCCC12 (stereo not given)
Key: inactive
